systemTested: human CD33 P46I (human, UniProt P20138 18-364)
Sequence (P20138 18-364 P46I limits assumed): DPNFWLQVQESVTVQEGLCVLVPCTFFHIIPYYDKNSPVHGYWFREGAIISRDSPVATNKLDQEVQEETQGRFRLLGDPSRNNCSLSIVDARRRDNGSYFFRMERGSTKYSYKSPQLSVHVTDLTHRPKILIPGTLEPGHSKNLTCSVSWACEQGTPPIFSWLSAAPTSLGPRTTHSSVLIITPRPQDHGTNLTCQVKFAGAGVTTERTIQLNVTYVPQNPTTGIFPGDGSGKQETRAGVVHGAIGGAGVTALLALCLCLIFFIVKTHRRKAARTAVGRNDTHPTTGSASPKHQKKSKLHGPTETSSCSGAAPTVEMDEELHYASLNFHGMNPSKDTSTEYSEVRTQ
assayProtocol: flow cytometry, mutant on cells, IgG
resultType: Mean % WT Binding (% WT binding)
Write it as a number; the unit % WT binding goes unstated.

# input Report Mean % WT Binding for Refmab #3 (antibody, human IgG1, V domains shown, Tested in IgG format; human IgG1 Fc silent (PG-LALA)) VH: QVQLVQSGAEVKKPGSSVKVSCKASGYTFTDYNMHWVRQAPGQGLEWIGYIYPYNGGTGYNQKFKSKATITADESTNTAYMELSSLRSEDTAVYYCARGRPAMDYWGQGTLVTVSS VL: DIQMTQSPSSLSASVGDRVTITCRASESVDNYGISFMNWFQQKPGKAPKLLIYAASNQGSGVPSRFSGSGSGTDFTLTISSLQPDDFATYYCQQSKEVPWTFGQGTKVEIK please.
# output 1.8
